# Measurement protocol: inhibitors of the yeast RAM network, pilot screen, dse1pr::URA3 reporter, 5-FOA selection (AID 869);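 note: 0% = DMSO wells with no growth and 100% = 10 µM 1-NA-PP1 with full growth; RAM network block rescues cells from 5-FOA so hits raise OD615 growth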
# Reported conditions: S. cerevisiae dse1pr::URA3 5-FOA growth, OD615, 2 d; at 10 µM; stronger effect = higher value; strain carries analog-sensitive mutant Cbk1 kinase
Readout label: inhibition (%)
Lab book: enter the figure in %, no units written.

{"columns": ["Compound", "Readout label", "Result units", "Recorded number"],
 "data": [
  ["CC(=O)N1CCc2c(sc(NC(=O)CN3C(=O)CCC3=O)c2C(N)=O)C1", "inhibition", "%", 1.53],
  ["COc1ccc(S(=O)(=O)N2CCN(C)CC2)cc1Br", "inhibition", "%", 1.01],
  ["CCN(CC)S(=O)(=O)c1cc(C(=O)Nc2ccc(Cl)cn2)ccc1C", "inhibition", "%", 1.1],
  ["CCOC(=O)C1CCCN(C(=O)c2ccco2)C1 (stereo unspecified)", "inhibition", "%", 2.3],
  ["Cn1c(NC(=O)c2ccccc2C(F)(F)F)cc(=O)n(C)c1=O", "inhibition", "%", 0.785]
]}

Now consider a different compound.
Item O=C(CC1c2ccccc2Oc2ccccc21)N1CCN(c2ccccn2)CC1 : provide inhibition
1.08
